Biological target: 5-hydroxytryptamine receptor 2B (Homo sapiens)
Sequence (P41595 whole entry): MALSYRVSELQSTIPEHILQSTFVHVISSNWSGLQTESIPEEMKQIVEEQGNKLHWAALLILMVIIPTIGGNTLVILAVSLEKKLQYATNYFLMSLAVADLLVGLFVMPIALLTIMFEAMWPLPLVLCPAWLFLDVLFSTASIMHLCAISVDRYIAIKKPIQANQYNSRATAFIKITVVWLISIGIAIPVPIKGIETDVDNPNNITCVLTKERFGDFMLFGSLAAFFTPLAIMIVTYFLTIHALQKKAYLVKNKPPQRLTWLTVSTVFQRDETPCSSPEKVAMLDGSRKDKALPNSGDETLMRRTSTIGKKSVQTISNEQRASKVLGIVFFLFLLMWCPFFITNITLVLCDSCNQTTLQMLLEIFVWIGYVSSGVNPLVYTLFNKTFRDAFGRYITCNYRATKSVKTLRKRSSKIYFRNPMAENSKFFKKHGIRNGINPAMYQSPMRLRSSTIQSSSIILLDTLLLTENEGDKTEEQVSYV
Assay: Agonist activity at human 5HT2B receptor stably expressed in Flp-In-T-REx-293 cells assessed as maximal Gq-mediated calcium flux by Fluo-4 direct dye based FLIPR Tetra assay relative to control
Type: functional, cell-based
Details: filed as agonist
Measured property: Emax (%)

Solved cases (4 shown):
INSERT INTO results (molecule, unit_string, reading) VALUES
  ('Cc1ccc(O)c(C2NCCc3c2[nH]c2ccc(F)cc32)c1 (configuration not stated)', '%', 115),
  ('Oc1cc(Br)ccc1C1NCCc2c1[nH]c1ccc(F)cc21 (configuration not stated)', '%', 112),
  ('Oc1cc(Cl)ccc1C1NCCc2c1[nH]c1ccc(F)cc21 (configuration not stated)', '%', 105),
  ('COc1ccc(C2NCCc3c2[nH]c2ccc(F)cc32)c(O)c1 (configuration not stated)', '%', 102);

[P] Cc1ccc(C2NCCc3c2[nH]c2ccc(F)cc32)c(C)c1 (configuration not stated)
[Q] COc1ccc(OC)c(C2NCCc3c2[nH]c2ccc(F)cc32)c1 (configuration not stated)
Task: # compare Emax for P vs Q ; return the one with the smaller value Pick one and reply with its label.
Output: Q
(Q: 52.1%, P: 107%)

====

Target: Sigma non-opioid intracellular receptor 1 (Homo sapiens)
Sequence (Q99720 whole entry): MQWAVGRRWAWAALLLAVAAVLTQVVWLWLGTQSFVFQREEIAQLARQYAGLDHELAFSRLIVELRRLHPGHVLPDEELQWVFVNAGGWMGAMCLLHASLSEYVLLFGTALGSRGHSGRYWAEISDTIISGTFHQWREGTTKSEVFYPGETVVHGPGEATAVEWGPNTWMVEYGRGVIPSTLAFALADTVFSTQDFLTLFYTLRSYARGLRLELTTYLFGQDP
Experiment: Binding affinity to sigma 1 receptor (unknown origin) assessed as inhibition constant
pKi: −log10 of the molar value.
Measured property: pKi

[1] COc1cc(OC)c(C2NCCc3c2[nH]c2ccc(Cl)cc32)cc1OC (stereo not drawn)
[2] COc1cc(OC)c(C2NCCc3c2[nH]c2ccc(F)cc32)cc1OC (stereo not drawn)
Task: # compare pKi for 1 vs 2 ; return the one with the smaller value Pick one and reply with its label.
Output: 1

====

Biological target: Histamine H4 receptor (Homo sapiens)
Assay: Inhibition of H4 receptor (unknown origin)
Conditions: concentration not given here
Measured property: inhibition

Solved cases (3 shown):
INSERT INTO assay_data (compound, reading) VALUES
  ('COc1ccc(C2NCCc3c2[nH]c2ccc(Cl)cc32)c(O)c1 (centres undefined)', '< 50%'),
  ('COc1cc(OC)c(C2NCCc3c2[nH]c2ccc(Cl)cc32)cc1OC (centres undefined)', '< 50%'),
  ('COc1ccc(C2NCCc3c2[nH]c2ccc(F)cc32)c(O)c1 (centres undefined)', '< 50%');

Now for the compound whose inhibition we want.
Task: Find the recorded inhibition belonging to COc1cc(OC)c(C2NCCc3c2[nH]c2ccc(F)cc32)cc1OC (centres undefined) and report it.
Output: < 50%

====

Molecular target: 5-hydroxytryptamine receptor 2A (Homo sapiens, UniProt P28223)
Sequence (P28223 whole entry): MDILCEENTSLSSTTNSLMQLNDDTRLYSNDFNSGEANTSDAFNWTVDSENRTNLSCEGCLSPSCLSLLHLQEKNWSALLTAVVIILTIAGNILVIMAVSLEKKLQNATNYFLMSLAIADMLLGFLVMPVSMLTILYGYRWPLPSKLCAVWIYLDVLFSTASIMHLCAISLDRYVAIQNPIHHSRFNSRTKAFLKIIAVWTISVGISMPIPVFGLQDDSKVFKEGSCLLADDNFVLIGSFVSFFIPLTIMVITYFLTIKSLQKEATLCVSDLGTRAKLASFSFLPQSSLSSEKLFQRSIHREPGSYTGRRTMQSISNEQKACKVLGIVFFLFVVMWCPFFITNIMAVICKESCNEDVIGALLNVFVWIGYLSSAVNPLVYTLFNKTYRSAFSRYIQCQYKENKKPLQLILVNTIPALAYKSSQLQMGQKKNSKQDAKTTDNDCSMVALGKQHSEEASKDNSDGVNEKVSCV
Assay: Agonist activity at human 5HT2A receptor stably expressed in Flp-In-T-REx-293 cells assessed as increase in Gq-mediated calcium flux by Fluo-4 direct dye based FLIPR Tetra assay
pEC50: −log10 of the molar value.
Measured property: pEC50

[A] Oc1ccc2[nH]c3c(c2c1)CCNC3c1ccc(Br)cc1O (stereo not given)
[B] Fc1ccc2[nH]c3c(c2c1)CCNC3C1CCCCC1 (stereo not given)
[C] Fc1ccc2[nH]c3c(c2c1)CCNC3C(c1ccccc1)c1ccccc1 (stereo not given)
[D] Clc1ccc2[nH]c3c(c2c1)CCNC3c1ccc(Cl)s1 (stereo not given)
Task: Hey, quick one: sort these by pEC50, low to high? Your task in answering is to list the labels in the requested order.
Output: C, A, D, B

[A] Fc1ccc2[nH]c3c(c2c1)CCNC3c1cccs1 (stereo not given)
[B] COc1ccc2cc(C3NCCc4c3[nH]c3ccc(Cl)cc43)ccc2c1 (stereo not given)
Task: # compare pEC50 for A vs B ; return the one with the smaller value Pick one and reply with its label.
Output: B

[1] Oc1ccccc1C1NCCc2c1[nH]c1ccc(Cl)cc21 (stereo not given)
[2] Cc1ccc(O)c(C2NCCc3c2[nH]c2ccc(F)cc32)c1 (stereo not given)
Task: # compare pEC50 for 1 vs 2 ; return the one with the smaller value Pick one and reply with its label.
Output: 2
(2: 5.91, 1: 7.29)

====

Target: UniProtKB P28335
Sequence (P28335 whole entry): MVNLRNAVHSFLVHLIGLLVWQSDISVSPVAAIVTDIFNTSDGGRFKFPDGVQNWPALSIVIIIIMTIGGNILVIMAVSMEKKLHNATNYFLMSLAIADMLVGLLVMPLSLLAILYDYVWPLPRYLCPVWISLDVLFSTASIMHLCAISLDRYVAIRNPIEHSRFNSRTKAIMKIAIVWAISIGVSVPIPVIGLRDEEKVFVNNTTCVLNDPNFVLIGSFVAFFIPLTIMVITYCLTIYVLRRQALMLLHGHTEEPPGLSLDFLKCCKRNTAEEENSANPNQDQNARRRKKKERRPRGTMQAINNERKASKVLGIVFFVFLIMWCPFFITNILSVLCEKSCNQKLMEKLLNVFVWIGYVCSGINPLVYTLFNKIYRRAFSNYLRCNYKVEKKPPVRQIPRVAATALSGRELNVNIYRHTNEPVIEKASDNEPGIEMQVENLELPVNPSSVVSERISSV
Assay: Agonist activity at human 5HT2C receptor stably expressed in Flp-In-T-REx-293 cells assessed as increase in Gq-mediated calcium flux by Fluo-4 direct dye based FLIPR Tetra assay
Type: functional, cell-based
Conditions: read-out: EC50
Measured property: EC50 (nM)

INSERT INTO measurements (compound, measured_property, reading) VALUES
  ('Clc1ccc2[nH]c3c(c2c1)CCNC3c1cccs1 (configuration not stated)', 'EC50', 602);

[a] COc1ccc(OC)c(C2NCCc3c2[nH]c2ccc(Cl)cc32)c1 (configuration not stated)
[b] COc1ccc(OC)c(C2NCCc3c2[nH]c2ccc(F)cc32)c1 (configuration not stated)
Task: From the recorded data, which exceeds the other in EC50: a or b ? Pick one and reply with its label.
Output: a

====

Molecular target: 5-hydroxytryptamine receptor 2A (Homo sapiens, UniProt P28223)
Assay: Agonist activity at human 5HT2A receptor stably expressed in Flp-In-T-REx-293 cells assessed as increase in Gq-mediated calcium flux by Fluo-4 direct dye based FLIPR Tetra assay
pEC50: −log10 of the molar value.
Measured property: pEC50

Solved cases (4 shown):
INSERT INTO measurements (compound, measured_property, reading) VALUES
  ('COc1ccc(C2NCCc3c2[nH]c2ccc(O)cc32)c(O)c1 (configuration not stated)', 'pEC50', 9.30),
  ('CCC1NCCc2c1[nH]c1ccc(O)cc21 (configuration not stated)', 'pEC50', 6.71),
  ('Clc1ccc2[nH]c3c(c2c1)CCNC3CCc1ccccc1 (configuration not stated)', 'pEC50', 7.19),
  ('CCCC1NCCc2c1[nH]c1ccc(Cl)cc21 (configuration not stated)', 'pEC50', 6.19);

[P] Oc1ccc2[nH]c3c(c2c1)CCNC3c1ccccc1Cl (configuration not stated)
[Q] COc1cc(OC)c(C2NCCc3c2[nH]c2ccc(O)cc32)cc1OC (configuration not stated)
Task: From the recorded data, which exceeds the other in pEC50: P or Q ? Pick one and reply with its label.
Output: Q
(Q: 8.42, P: 5.85)

====

Notes on Ki obtained with UniProt:P28221.
Sequence (P28221 whole entry): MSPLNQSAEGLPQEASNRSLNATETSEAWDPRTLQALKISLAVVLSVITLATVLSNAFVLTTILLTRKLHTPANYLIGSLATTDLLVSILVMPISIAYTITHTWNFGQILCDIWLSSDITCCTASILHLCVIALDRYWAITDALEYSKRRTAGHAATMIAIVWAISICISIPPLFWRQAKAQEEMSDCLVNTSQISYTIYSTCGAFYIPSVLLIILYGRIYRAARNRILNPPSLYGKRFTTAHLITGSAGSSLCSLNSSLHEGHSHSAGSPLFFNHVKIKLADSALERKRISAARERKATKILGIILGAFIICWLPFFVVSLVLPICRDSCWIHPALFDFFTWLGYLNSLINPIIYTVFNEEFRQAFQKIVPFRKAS
Measured property: Ki (nM)

[I] COc1ccc(C2NCCc3c2[nH]c2ccc(F)cc32)c(O)c1 (configuration not stated)
[II] COc1cc(OC)c(C2NCCc3c2[nH]c2ccc(F)cc32)cc1OC (configuration not stated)
Task: # compare Ki for I vs II ; return the one with the smaller value Pick one and reply with its label.
Output: I

====

Target: UniProt P28335
Assay: Agonist activity at human 5HT2C receptor stably expressed in Flp-In-T-REx-293 cells assessed as increase in Gq-mediated calcium flux by Fluo-4 direct dye based FLIPR Tetra assay
Assay type: functional, cell-based
Conditions: read-out: EC50
Measured property: EC50 (µM)

Solved cases (3 shown):
INSERT INTO results (compound, unit_string, reading) VALUES
  ('Oc1c(Br)cccc1C1NCCc2c1[nH]c1ccc(F)cc21 (configuration not stated)', 'µM', 0.0665),
  ('Oc1ccc2[nH]c3c(c2c1)CCNC3c1ccccc1F (configuration not stated)', 'µM', 0.0132),
  ('Fc1ccc2[nH]c3c(c2c1)CCNC3c1ccc2ccccc2c1 (configuration not stated)', 'µM', 0.186);

[I] COc1ccc2cc(C3NCCc4c3[nH]c3ccc(F)cc43)ccc2c1 (configuration not stated)
[II] Cc1ccc(C2NCCc3c2[nH]c2ccc(F)cc32)c(C)c1 (configuration not stated)
Task: From the recorded data, which exceeds the other in EC50: I or II ? Pick one and reply with its label.
Output: I

====

Target: 5-hydroxytryptamine receptor 2C (Homo sapiens)
Assay: Agonist activity at human 5HT2C receptor stably expressed in Flp-In-T-REx-293 cells assessed as maximal Gq-mediated calcium flux by Fluo-4 direct dye based FLIPR Tetra assay relative to control
Format: functional, cell-based
Settings: filed as agonist
Measured property: Emax (%)

INSERT INTO measurements (molecule, measured_property, reading) VALUES
  ('Oc1ccc(O)c(C2NCCc3c2[nH]c2ccc(F)cc32)c1 (stereo not given)', 'Emax', 120),
  ('Oc1ccccc1C1NCCc2c1[nH]c1ccc(F)cc21 (stereo not given)', 'Emax', 100),
  ('Oc1c(Br)cccc1C1NCCc2c1[nH]c1ccc(F)cc21 (stereo not given)', 'Emax', 109),
  ('Fc1ccc2[nH]c3c(c2c1)CCNC3c1ccccc1 (stereo not given)', 'Emax', 102),
  ('Fc1ccc2[nH]c3c(c2c1)CCNC3c1cc2ccccc2s1 (stereo not given)', 'Emax', 110),
  ('Clc1ccc2[nH]c3c(c2c1)CCNC3c1ccc(Cl)s1 (stereo not given)', 'Emax', 117),
  ('Fc1ncccc1C1NCCc2c1[nH]c1ccc(Cl)cc21 (stereo not given)', 'Emax', 75.2),
  ('CCC1NCCc2c1[nH]c1ccc(Cl)cc21 (stereo not given)', 'Emax', 80.8),
  ('COc1cc(OC)c(C2NCCc3c2[nH]c2ccc(F)cc32)cc1OC (stereo not given)', 'Emax', 111),
  ('COc1cc(OC)c(C2NCCc3c2[nH]c2ccc(Cl)cc32)cc1OC (stereo not given)', 'Emax', 97.5);

Recorded values, source ChEMBL document CHEMBL5131517.
